IC50 overview
Target chain: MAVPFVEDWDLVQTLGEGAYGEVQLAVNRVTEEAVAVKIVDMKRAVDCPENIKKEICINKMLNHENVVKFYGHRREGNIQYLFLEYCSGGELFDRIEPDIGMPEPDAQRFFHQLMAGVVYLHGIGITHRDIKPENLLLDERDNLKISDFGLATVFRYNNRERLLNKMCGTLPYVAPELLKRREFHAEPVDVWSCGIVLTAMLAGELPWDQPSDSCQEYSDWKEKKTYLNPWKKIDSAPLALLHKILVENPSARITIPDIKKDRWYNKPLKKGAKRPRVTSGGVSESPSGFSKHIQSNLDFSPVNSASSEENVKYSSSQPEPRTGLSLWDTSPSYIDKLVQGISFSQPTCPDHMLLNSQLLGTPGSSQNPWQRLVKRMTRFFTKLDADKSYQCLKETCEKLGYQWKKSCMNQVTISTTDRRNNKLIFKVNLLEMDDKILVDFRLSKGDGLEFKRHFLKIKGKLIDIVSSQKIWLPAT
// units = µM; emit number, no label

CCNC(=O)N=S(C)(=O)c1ccc2cc1NCCCCNc1nc(ncc1Br)N2 (racemic) [Example 6] :: 3.77

Okay, now this molecule:
Task: So what's the measured IC50 for this one? CCOC(=O)N=S(C)(=O)c1ccc2cc1NCCCCNc1nc(ncc1I)N2 (racemic) [Example 4]
Result: 1.85

Origin of values: patent US20070191393A1
